Can you tell me phosphorylation enrichment for the items I'm about to list?
Target: Fes (UniProt P07332)
Sequence (P07332 whole entry, looked up): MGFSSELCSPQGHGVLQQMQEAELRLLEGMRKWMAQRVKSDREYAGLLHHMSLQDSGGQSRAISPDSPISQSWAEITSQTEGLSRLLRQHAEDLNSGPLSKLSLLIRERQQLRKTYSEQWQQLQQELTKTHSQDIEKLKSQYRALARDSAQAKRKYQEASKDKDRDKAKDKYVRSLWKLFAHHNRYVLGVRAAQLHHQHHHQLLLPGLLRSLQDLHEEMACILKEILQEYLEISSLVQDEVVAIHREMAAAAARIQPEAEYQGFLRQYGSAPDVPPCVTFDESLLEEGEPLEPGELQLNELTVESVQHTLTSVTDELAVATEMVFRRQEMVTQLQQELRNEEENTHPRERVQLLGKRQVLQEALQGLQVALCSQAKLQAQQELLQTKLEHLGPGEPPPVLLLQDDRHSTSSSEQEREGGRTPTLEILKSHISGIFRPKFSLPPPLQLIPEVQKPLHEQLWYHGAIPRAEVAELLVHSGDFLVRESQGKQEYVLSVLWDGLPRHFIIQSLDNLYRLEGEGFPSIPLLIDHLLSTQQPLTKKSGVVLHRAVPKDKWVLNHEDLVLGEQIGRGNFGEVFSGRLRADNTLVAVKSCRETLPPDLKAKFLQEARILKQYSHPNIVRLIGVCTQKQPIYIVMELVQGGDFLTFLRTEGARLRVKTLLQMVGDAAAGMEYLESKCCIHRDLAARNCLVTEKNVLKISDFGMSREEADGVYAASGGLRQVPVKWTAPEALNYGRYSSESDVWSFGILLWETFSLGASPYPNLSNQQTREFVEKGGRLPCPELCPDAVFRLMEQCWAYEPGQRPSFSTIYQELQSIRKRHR
Assay: phosphorylation enrichment, bacterial display (enrichment ratio); higher = better substrate or ligand; peptides without Tyr show the background;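 further: 11-residue human phosphosite peptides and single-mutation variants displayed on the E. coli surface, counted by deep sequencing, each peptide's frequency after selection divided by its frequency in the unselected input library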;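 further: frequency after pTyr selection over input frequency; kinase dosed for 20-30% of maximal phosphorylation in three min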
Answers are plain numbers.

Example cases with answers are listed next.
{"Sequence Code": "RVFIKYLPEWT [PSEN1_Y240_L235R]", "phosphorylation enrichment": 2.8}
{"Sequence Code": "TFRPPYFHRDC [HGD_Y333_N337D_YF]", "phosphorylation enrichment": 0.847}
{"Sequence Code": "GVRLYYRVRES [RB1_Y454_M457R]", "phosphorylation enrichment": 1.08}
{"Sequence Code": "HQKKPYCHAHN [NRAP_Y53]", "phosphorylation enrichment": 1.62}
{"Sequence Code": "NDHHVYLEGTL [ALDOB_Y223]", "phosphorylation enrichment": 0.756}
{"Sequence Code": "YIGVTYKNKED [PDGFRA_Y993_E996K]", "phosphorylation enrichment": 1.07}
{"Sequence Code": "EFNLMYHGTKE [IRF6_Y97_D98H]", "phosphorylation enrichment": 0.94}
{"Sequence Code": "DDERGYRRVRS [GIGYF2_Y268]", "phosphorylation enrichment": 0.593}
{"Sequence Code": "VQNIVYRTASI [CYP39A1_Y102]", "phosphorylation enrichment": 0.619}
{"Sequence Code": "EGVPLYESATT [DCC_Y809]", "phosphorylation enrichment": 1.07}

List phosphorylation enrichment for every entry below, keeping the order given.
1. VKMLEYRGKDV [CASP5_Y74_L75R]
2. SFGMVYEGNAR [INSR_Y1038]
3. KFMVGYEMIAQ [GALT_Y339_L342I]
4. RRIHSYRGFLW [VHL_Y112_H115Y_YF]
5. EYQLPYYNTVP [BMPR1A_Y457_M460T]
6. DPLLTYWFPPK [LMNA_Y481_R482W]
7. GYQPEYGQPAG [SYP_Y278_D277E]

Response:
1. 0.737
2. 0.775
3. 1.06
4. 0.575
5. 1.05
6. 1.13
7. 0.851

----------
Target: Jak2 (UniProt O60674)
Sequence (O60674 whole entry, looked up): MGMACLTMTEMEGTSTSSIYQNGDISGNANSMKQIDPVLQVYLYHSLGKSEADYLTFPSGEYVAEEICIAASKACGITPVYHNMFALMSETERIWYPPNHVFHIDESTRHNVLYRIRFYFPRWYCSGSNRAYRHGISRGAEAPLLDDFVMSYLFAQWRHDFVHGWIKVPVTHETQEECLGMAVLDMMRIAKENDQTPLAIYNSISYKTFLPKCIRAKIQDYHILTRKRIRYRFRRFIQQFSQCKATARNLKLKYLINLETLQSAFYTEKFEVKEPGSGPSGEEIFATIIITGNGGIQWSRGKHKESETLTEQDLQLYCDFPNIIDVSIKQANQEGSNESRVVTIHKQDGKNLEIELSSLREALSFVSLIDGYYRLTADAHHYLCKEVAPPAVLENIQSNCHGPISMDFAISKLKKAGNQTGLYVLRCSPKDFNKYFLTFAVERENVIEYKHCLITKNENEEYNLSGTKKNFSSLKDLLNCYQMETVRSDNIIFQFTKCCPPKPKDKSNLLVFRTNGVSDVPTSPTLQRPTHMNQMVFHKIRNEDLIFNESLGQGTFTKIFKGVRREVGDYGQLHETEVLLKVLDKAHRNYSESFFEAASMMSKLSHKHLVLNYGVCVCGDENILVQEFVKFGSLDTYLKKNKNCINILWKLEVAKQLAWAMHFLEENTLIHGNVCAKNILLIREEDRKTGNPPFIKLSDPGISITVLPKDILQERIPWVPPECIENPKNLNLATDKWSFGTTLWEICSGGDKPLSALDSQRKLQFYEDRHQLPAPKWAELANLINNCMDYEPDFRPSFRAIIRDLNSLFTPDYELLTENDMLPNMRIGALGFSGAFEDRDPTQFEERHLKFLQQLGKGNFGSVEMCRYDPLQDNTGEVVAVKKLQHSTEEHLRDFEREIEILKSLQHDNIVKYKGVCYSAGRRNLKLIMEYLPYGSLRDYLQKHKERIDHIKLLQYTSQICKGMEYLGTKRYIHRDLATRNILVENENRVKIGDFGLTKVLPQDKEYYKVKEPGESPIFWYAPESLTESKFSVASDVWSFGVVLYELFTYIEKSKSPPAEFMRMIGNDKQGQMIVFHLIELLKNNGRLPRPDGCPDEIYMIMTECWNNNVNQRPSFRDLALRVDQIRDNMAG
Assay: phosphorylation enrichment, bacterial display (enrichment ratio); higher = better substrate or ligand; peptides without Tyr show the background
Quantity: phosphorylation enrichment
Numbers only.

List phosphorylation enrichment for every entry below, keeping the order given.
1. WQQQSYLDSVI [CTNNB1_Y30_G34V]
2. CTTIHYNFMSN [TP53_Y234_C238S_YF]
3. RALCHYFKLNI [ETV6_Y401_R399C_YF]
4. SVMAEYGLFGA [VSX2_Y219_YF]
5. PSRKDYETFQS [CTNND2_Y1154_P1159S_YF]
6. EREYKYGAHKY [OAT_Y50_N54K]

Response:
1. 0.908
2. 1.07
3. 1.27
4. 0.679
5. 0.553
6. 0.509

----------
Target: Jak2 (UniProt O60674)
Assay: phosphorylation enrichment, bacterial display (enrichment ratio); higher = better substrate or ligand; peptides without Tyr show the background
Can you tell me phosphorylation enrichment for the items I'm about to list?
Give bare numbers.

Example cases with answers are listed next.
{"Sequence Code": "VNNLVYENING [FRS2_Y306_K303N]", "Test System": "Jak2 (UniProt O60674)", "phosphorylation enrichment": 0.571}
{"Sequence Code": "DRLAVYIDRVR [LMNA_Y45]", "Test System": "Jak2 (UniProt O60674)", "phosphorylation enrichment": 0.892}
{"Sequence Code": "LSDGPYSSPYE [EPOR_Y485_N487S]", "Test System": "Jak2 (UniProt O60674)", "phosphorylation enrichment": 1.2}
{"Sequence Code": "YDAHNYHPLPV [OAT_Y55_G51D]", "Test System": "Jak2 (UniProt O60674)", "phosphorylation enrichment": 0.848}
{"Sequence Code": "TKDTFYQQPMF [GBA_Y451_K452Q]", "Test System": "Jak2 (UniProt O60674)", "phosphorylation enrichment": 0.648}
{"Sequence Code": "IGRGSYAKVLL [PRKCZ_Y263]", "Test System": "Jak2 (UniProt O60674)", "phosphorylation enrichment": 0.458}
{"Sequence Code": "FTRNFYVWAVL [CYBA_Y88_R90W_YF]", "Test System": "Jak2 (UniProt O60674)", "phosphorylation enrichment": 1.31}

// next item, phosphorylation enrichment requested
Prompt: # return recorded phosphorylation enrichment for entry EPYEVYRIVPE [IRF8_Y110_K108E]
Response: 0.994
